Measured variant/HC_K99L values are reported for all entries that follow.
# TARGET: T1, mouse tissue factor pathway inhibitor (TFPI) (mouse, UniProt O54819 29-289, limits assumed)
# T1 construct: bought; also called mTFPI; murine TFPI
# T1 sequence (looked up): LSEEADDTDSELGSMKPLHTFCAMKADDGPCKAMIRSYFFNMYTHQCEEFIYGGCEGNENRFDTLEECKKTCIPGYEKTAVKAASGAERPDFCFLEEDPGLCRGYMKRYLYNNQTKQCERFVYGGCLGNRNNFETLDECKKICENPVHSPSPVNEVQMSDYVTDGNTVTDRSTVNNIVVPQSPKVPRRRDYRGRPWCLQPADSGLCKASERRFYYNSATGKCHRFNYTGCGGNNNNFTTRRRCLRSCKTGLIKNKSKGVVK
# EXPERIMENT_NOTES: competitive ELISA

>  <BINDER>
2A8 HC S31V+S35L+I51E+S54F+K99V/LC N51V+D91K (Fab, V domains shown) VH: QVQLVESGGGLVQPGGSLRLSCAASGFTFRVYGMLWVRQAPGKGLEWVSSERGFSSSTYYADSVKGRFTISRDNSKNTLYLQMNSLRAEDTAVYYCARVYRYWFDYWGQGTLVTVSS VL: DIELTQPPSVSVAPGQTARISCSGDNLRNYYAHWYQQKPGQAPVVVIYYDVNRPSGIPERFSGSNSGNTATLTISGTQAEDEADYYCQSWKDGVPVFGGGTKLTVLG

>  <U>
ratio

>  <variant/HC_K99L>
3.9

$$$$
>  <BINDER>
2A8-216 (HC S31V+I51D+S55R+K99V/LC Y48F+D91L+V96W) (Fab, V domains shown) VH: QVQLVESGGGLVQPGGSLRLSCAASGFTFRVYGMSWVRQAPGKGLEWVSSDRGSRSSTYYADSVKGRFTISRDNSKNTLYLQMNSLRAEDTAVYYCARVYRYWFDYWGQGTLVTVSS VL: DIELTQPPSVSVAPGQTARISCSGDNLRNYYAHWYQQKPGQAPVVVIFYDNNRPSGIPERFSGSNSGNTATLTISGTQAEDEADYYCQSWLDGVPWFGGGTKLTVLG

>  <U>
ratio

>  <variant/HC_K99L>
11.9

$$$$
>  <BINDER>
2A8 HC S31V+S35D+I51D+K99V/LC Y48F+D91K (Fab, V domains shown) VH: QVQLVESGGGLVQPGGSLRLSCAASGFTFRVYGMDWVRQAPGKGLEWVSSDRGSSSSTYYADSVKGRFTISRDNSKNTLYLQMNSLRAEDTAVYYCARVYRYWFDYWGQGTLVTVSS VL: DIELTQPPSVSVAPGQTARISCSGDNLRNYYAHWYQQKPGQAPVVVIFYDNNRPSGIPERFSGSNSGNTATLTISGTQAEDEADYYCQSWKDGVPVFGGGTKLTVLG

>  <U>
ratio

>  <variant/HC_K99L>
0.1

$$$$
